# studySystem: UniProt P50407
# methodSummary: Isolated guinea-pig ileum assay: relaxation of substance P-induced contraction
experimentalEndpoint: pEC50
// scale note: pEC50 = -log10(conc_M); give the bare number

Reference set (3 entries):
1) CC(=O)c1ccccc1N1CCN(CCCCCC(=O)NC2CCCc3ccccc32)CC1 (stereo not shown) [Compound 34] :: 5.61
2) COc1ccccc1N1CCN(CCCCCC(=O)NC2CCCc3ccccc32)CC1 (stereo not shown) [Compound 28] :: 5.20
3) Cc1ccccc1N1CCN(CCCCCC(=O)NC2CCCc3ccccc32)CC1 (stereo not shown) [Compound 49] :: 5.74

pEC50 recorded for this compound, CSc1ccccc1N1CCN(CCCCCC(=O)NC2CCCc3ccccc32)CC1 (stereo not shown) [Compound 44] , is 5.59

* * *

Listed here are molecules together with their documented Ki.
# studySystem: rat cloned 5-HT7 receptor (Rattus norvegicus)
# Construct: purchased PerkinElmer-NEN; host or cells: HEK-293
# Sequence (P32305 whole entry): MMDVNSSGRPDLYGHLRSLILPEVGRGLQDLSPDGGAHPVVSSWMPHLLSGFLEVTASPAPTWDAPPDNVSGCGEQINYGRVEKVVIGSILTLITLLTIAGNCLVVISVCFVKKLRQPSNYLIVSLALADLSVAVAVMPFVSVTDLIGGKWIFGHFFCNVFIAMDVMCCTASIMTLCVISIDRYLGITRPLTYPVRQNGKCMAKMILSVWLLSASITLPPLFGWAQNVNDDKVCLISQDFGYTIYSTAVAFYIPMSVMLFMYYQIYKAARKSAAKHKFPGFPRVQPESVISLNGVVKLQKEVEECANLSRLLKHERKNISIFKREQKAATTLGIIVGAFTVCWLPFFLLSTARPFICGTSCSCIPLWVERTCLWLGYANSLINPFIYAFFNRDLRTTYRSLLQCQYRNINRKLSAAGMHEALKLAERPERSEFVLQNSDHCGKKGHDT
# methodSummary: Radioligand binding assay ([3H]-LSD) at rat cloned 5-HT7Rs
# conditionLabel: [3H]-LSD, rat recombinant 5-HT7R expressed in HEK-293 cells
Field: numeric (nM). Do not append units.

1. COc1ccc(N2CCN(CCCCCC(=O)NC3CCCc4ccccc43)CC2)cc1 (centres unmarked) [Compound 38] :: 2100
2. COc1ccccc1N1CCN(CCCCCC(=O)NC2CCCc3ccccc32)CC1 (centres unmarked) [Compound 28] :: 6.64
3. CC(=O)c1cccc(N2CCN(CCCCCC(=O)NC3CCCc4ccccc43)CC2)c1 (centres unmarked) [Compound 41] :: 496

Measured Ki of N#Cc1ccccc1N1CCN(CCCCCC(=O)NC2CCCc3ccccc32)CC1 (centres unmarked) [Compound 33] : 48.7

Measured Ki, O=C(CCCCCN1CCN(c2ccccc2[N+](=O)[O-])CC1)NC1CCCc2ccccc21 (centres unmarked) [Compound 48] : 63.3

Documented Ki of NC(=O)c1ccccc1N1CCN(CCCCCC(=O)NC2CCCc3ccccc32)CC1 (centres unmarked) [Compound 43] : 229

* * *

# studySystem: UniProt P19327
# Sequence (P19327 1-422): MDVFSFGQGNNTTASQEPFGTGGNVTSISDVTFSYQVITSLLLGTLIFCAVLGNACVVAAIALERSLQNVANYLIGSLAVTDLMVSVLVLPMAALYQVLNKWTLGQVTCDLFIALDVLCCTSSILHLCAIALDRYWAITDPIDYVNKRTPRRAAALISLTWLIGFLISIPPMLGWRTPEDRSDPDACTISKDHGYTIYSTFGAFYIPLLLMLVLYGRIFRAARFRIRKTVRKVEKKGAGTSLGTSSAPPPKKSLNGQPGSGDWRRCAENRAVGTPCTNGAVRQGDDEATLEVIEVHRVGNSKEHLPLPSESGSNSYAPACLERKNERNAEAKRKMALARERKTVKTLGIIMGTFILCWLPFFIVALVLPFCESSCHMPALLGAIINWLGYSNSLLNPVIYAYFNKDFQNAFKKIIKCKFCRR
# conditionLabel: read-out: Ki, nM 5-HT1A; [3H]-8-OH-DPAT, rat hippocampal membranes
Rule: Ki below 100 nM gives Met, anything at or above gives Not met.

1. COc1ccc2c(c1)C(NC(=O)CCCN1CCN(c3ccccc3OC)CC1)CCC2 (stereo not drawn) [Compound 20] :: Not met
2. CSc1ccccc1N1CCN(CCCCCC(=O)NC2CCCc3ccccc32)CC1 (stereo not drawn) [Compound 44] :: Met
3. COc1ccc2c(c1)CCCC2NC(=O)CCCCCN1CCN(c2ccccc2OC)CC1 (stereo not drawn) [Compound 19] :: Met
4. COc1ccccc1N1CCN(CCCC(=O)NC2CCCc3c(OC)cccc32)CC1 (stereo not drawn) [Compound 7] :: Not met

Please state whether Ki is below 100 nM for NC(=O)c1ccccc1N1CCN(CCCCCC(=O)NC2CCCc3ccccc32)CC1 (stereo not drawn) [Compound 43]
Not met

Lab note: Ki threshold 100 nM. Does this compound come in strictly under it? N#Cc1ccccc1N1CCN(CCCCCC(=O)NC2CCCc3ccccc32)CC1 (stereo not drawn) [Compound 33]
Met

Strictly below 100 nM: is that where Ki of O=C(CCCCCN1CCN(c2ccccc2Cl)CC1)NC1CCCc2ccccc21 (stereo not drawn) [Compound 47] sits?
Met

Does COc1ccccc1N1CCN(CCCC(=O)NC2CCCc3cccc(OC)c32)CC1 (stereo not drawn) [Compound 23] have Ki strictly under 100 nM?
Not met

Input COc1ccccc1N1CCN(CCCCCC(=O)NC2CCCc3cccc(OC)c32)CC1 (stereo not drawn) [Compound 25] ; condition: Ki strictly below 100 nM. Does it hold?
Met

Criterion: Ki strictly below 100 nM. Is it met by COc1ccc2c(c1)CCCC2NC(=O)CCCN1CCN(c2ccccc2OC)CC1 (stereo not drawn) [Compound 17] ?
Not met

Please indicate whether the reported Ki of COc1ccccc1N1CCN(CCCCCC(=O)NC2CCCc3ccccc32)CC1 (stereo not drawn) [Compound 28] is strictly below 100 nM.
Met

Determine whether this compound shows Ki lower than 100 nM (ties excluded): N#Cc1cccc(N2CCN(CCCCCC(=O)NC3CCCc4ccccc43)CC2)c1 (stereo not drawn) [Compound 39]
Not met

API: query returns whether the compound falls strictly under 100 nM in Ki. Query: COc1ccccc1N1CCN(CCCCC(=O)NC2CCCc3cccc(OC)c32)CC1 (stereo not drawn) [Compound 24]
Met

Given Cc1ccccc1N1CCN(CCCCCC(=O)NC2CCCc3ccccc32)CC1 (stereo not drawn) [Compound 49] , is recorded Ki strictly lower than 100 nM?
Not met

Strictly below 100 nM: is that where Ki of O=C(CCCCCN1CCN(c2ccccc2)CC1)NC1CCCc2ccccc21 (stereo not drawn) [Compound 50] sits?
Not met

Could you please tell me whether Ki recorded for COc1ccc2c(c1)C(NC(=O)CCCCN1CCN(c3ccccc3OC)CC1)CCC2 (stereo not drawn) [Compound 21] is less than 100 nM?
Met

Could you please tell me whether Ki recorded for COc1cccc(N2CCN(CCCCCC(=O)NC3CCCc4ccccc43)CC2)c1 (stereo not drawn) [Compound 37] is less than 100 nM?
Not met

Please indicate whether the reported Ki of COc1cc(Cl)ccc1N1CCN(CCCCCC(=O)NC2CCCc3ccccc32)CC1 (stereo not drawn) [Compound 35] is strictly below 100 nM.
Not met

* * *

Parameter melting point: see the listing below.
Structures can show the parent of a compound that is named as a salt.

Sample answers from the record:
1. CS(=O)(=O)c1ccccc1N1CCN(CCCCCC(=O)NC2CCCc3ccccc32)CC1 (stereo not drawn) (as salt: HCl) (hydrate or solvate) :: 120 to 122 °C
2. COc1ccc(OC)c(N2CCN(CCCCCC(=O)NC3CCCc4ccccc43)CC2)c1 (stereo not drawn) (as salt: HCl) (hydrate or solvate) :: 124 to 126 °C
3. COc1ccccc1N1CCN(CCCC(=O)NC2CCCc3cccc(OC)c32)CC1 (stereo not drawn) (as salt: HCl) :: 131 to 133 °C
4. COc1ccc2c(c1)C(NC(=O)CCCCN1CCN(c3ccccc3OC)CC1)CCC2 (stereo not drawn) (as salt: HCl) (hydrate or solvate) :: 187 to 188 °C
5. CC(=O)c1ccc(N2CCN(CCCCCC(=O)NC3CCCc4ccccc43)CC2)cc1 (stereo not drawn) (as salt: HCl) :: 112 to 114 °C

Turning to the following compound.
Lab book: melting point of COc1ccccc1N1CCN(CCCCC(=O)NC2CCCc3ccccc32)CC1 (stereo not drawn) (as salt: HCl) (hydrate or solvate) noted as 199 to 200 °C

* * *

# studySystem: 5-HT7 receptor (Cavia porcellus, UniProt P50407)
# Sequence (P50407 whole entry): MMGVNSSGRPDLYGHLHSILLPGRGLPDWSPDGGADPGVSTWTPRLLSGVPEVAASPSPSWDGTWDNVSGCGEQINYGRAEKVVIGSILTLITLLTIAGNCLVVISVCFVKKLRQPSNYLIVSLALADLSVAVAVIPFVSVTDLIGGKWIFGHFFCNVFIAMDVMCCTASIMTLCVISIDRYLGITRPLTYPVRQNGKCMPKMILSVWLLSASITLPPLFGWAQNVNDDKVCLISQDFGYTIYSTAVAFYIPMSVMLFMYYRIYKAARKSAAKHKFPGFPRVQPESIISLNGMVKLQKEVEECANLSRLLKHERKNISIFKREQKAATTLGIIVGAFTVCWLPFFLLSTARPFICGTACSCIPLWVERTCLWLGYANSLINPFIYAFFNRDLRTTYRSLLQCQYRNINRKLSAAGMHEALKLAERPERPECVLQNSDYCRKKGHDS
# methodSummary: Isolated guinea-pig ileum assay: relaxation of substance P-induced contraction
# conditionLabel: isolated guinea-pig ileum
experimentalEndpoint: 5-HT7 intrinsic activity (in words)

1. COc1ccccc1N1CCN(CCCCCC(=O)NC2CCCc3ccccc32)CC1 (centres unmarked) :: Full agonists
2. Cc1ccccc1N1CCN(CCCCCC(=O)NC2CCCc3ccccc32)CC1 (centres unmarked) :: Full agonists
3. CSc1ccccc1N1CCN(CCCCCC(=O)NC2CCCc3ccccc32)CC1 (centres unmarked) :: Full agonists

* * *

# studySystem: 5-HT2A receptors (Rattus norvegicus)
# Sequence (P14842 whole entry): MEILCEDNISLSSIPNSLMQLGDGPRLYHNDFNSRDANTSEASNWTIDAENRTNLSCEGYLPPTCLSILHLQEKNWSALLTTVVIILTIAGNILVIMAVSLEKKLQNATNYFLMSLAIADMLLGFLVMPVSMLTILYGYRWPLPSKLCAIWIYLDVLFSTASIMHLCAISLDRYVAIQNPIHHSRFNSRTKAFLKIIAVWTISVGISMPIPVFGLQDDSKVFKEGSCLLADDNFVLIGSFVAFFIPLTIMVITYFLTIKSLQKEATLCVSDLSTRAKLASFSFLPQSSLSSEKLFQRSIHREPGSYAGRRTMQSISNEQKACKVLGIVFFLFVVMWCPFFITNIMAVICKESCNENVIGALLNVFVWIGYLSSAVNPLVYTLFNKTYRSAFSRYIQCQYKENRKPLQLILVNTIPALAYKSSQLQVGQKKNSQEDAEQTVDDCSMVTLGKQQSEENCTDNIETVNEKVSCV
# methodSummary: Radioligand binding assay ([3H]-ketanserin) at rat cortex membranes 5-HT2A receptors
# conditionLabel: read-out: Ki, nM 5-HT2A; [3H]-ketanserin, rat cortex membranes
Below is a list of entries, each paired with its recorded Ki value.
Provide the reading as a plain figure in nM.

Entry COc1cc(Cl)ccc1N1CCN(CCCCCC(=O)NC2CCCc3ccccc32)CC1 (centres unmarked) , 5-HT2A receptors (Rattus norvegicus) data, Ki value: 7170

Tested on 5-HT2A receptors (Rattus norvegicus): CSc1ccccc1N1CCN(CCCCCC(=O)NC2CCCc3ccccc32)CC1 (centres unmarked) . Observed Ki: 326

Recorded Ki for COc1cccc(N2CCN(CCCCCC(=O)NC3CCCc4ccccc43)CC2)c1 (centres unmarked) on 5-HT2A receptors (Rattus norvegicus) was 142

Entry CC(=O)c1ccccc1N1CCN(CCCCCC(=O)NC2CCCc3ccccc32)CC1 (centres unmarked) , 5-HT2A receptors (Rattus norvegicus) data, Ki value: 12200

GET /values?item= O=C(CCCCCN1CCN(c2ccccc2)CC1)NC1CCCc2ccccc21 (centres unmarked) &system= 5-HT2A receptors (Rattus norvegicus) returns Ki: 77.8

Record N#Cc1ccccc1N1CCN(CCCCCC(=O)NC2CCCc3ccccc32)CC1 (centres unmarked) has 5-HT2A receptors (Rattus norvegicus) Ki equal to 700

Response field Ki (5-HT2A receptors (Rattus norvegicus)) for item CC(=O)c1cccc(N2CCN(CCCCCC(=O)NC3CCCc4ccccc43)CC2)c1 (centres unmarked) : 1130

// assay 5-HT2A receptors (Rattus norvegicus), entry O=C(CCCCCN1CCN(c2ccccc2Cl)CC1)NC1CCCc2ccccc21 (centres unmarked) , Ki value = 301
